test: in vitro; settings: human, hela cells, % viability
Some compounds, each annotated with its measured viability at 28.5 h, 10 µM.
Enter your answer as a number in %; do not include the unit.

(Q) Find the measured viability at 28.5 h, 10 µM of "Cc1cc(C(=O)N2CCn3cnnc3C2)c(C2CC2)o1" and report it.
(A) 115

(Q) Find the measured viability at 28.5 h, 10 µM of "CSc1ccc(-n2ncc(-c3ccc(Cl)cc3)n2)cc1" and report it.
(A) 84

(Q) Find the measured viability at 28.5 h, 10 µM of "COc1cccc(OC)c1OCCCN1CCCCC1" and report it.
(A) 97.7

* * *

assay: in vitro; conditions: human, hela cells, % viability
measurement label: viability at 28.5 h, 10 µM (%)
Enter your answer as a number in %; do not include the unit.

(Q) Find the measured viability at 28.5 h, 10 µM of O=C(Cn1c(-c2ccc(F)cc2)cc2cccnc21)NC1CC1 [CBK284861] and report it.
(A) 103

(Q) Find the measured viability at 28.5 h, 10 µM of O=C(NC1CCCC1)c1ccc(Cl)cc1Cl [CBK002108] and report it.
(A) 93.7

* * *

test: in vitro; settings: human, hela cells, % viability
measurement label: viability at 28.5 h, 10 µM (%)
Enter your answer as a number in %; do not include the unit.

Reference set (3 entries):
>>> value_reported("O=C(Nc1ncccn1)C1CCCCC1 [CBK027567]")
98.3
>>> value_reported("Cc1ccc2c(Cl)c(-c3nnc(-c4ccc(Cl)cc4)o3)sc2c1 [CBK263682]")
106
>>> value_reported("COc1ccc2[nH]cc(C3CCN(C(=O)c4cc(C#N)c[nH]4)CC3)c2c1 [CBK305479]")
93.2

(Q) Find the measured viability at 28.5 h, 10 µM of Fc1cccc(Nc2nc(-c3ccncc3)nc3ccccc23)c1 [CBK072732] and report it.
(A) 89.5

(Q) Find the measured viability at 28.5 h, 10 µM of COc1ccc(-c2cnc3[nH]c(=O)n([C@@H](CO)C(C)C)c3n2)c(OC)c1OC [CBK064774] and report it.
(A) 94.3

(Q) Find the measured viability at 28.5 h, 10 µM of COc1ccccc1CC(=N)NOC(=O)COc1cccc2ccccc12 [CBK263012] and report it.
(A) 94.2

(Q) Find the measured viability at 28.5 h, 10 µM of COc1cc(-c2cncc(NCc3ccco3)n2)cc(OC)c1OC [CBK065259] and report it.
(A) 99.9

(Q) Find the measured viability at 28.5 h, 10 µM of CC#Cc1cn([C@H]2C[C@@H](O)[C@@H](CO)O2)c(=O)[nH]c1=O [CBK201182] and report it.
(A) 104

(Q) Find the measured viability at 28.5 h, 10 µM of O=C(CCC(=O)Nc1ccc(I)cc1)N/N=C/c1ccc(Br)cc1 [CBK262010] and report it.
(A) 88.9

(Q) Find the measured viability at 28.5 h, 10 µM of Fc1cccc(-c2nc3cnccn3c2NC2CCCC2)c1 [CBK283780] and report it.
(A) 81.4

(Q) Find the measured viability at 28.5 h, 10 µM of Cc1ccc(-c2nc3ncccc3o2)cc1NC(=O)c1cccnc1 [CBK268774] and report it.
(A) 100
